Provenance of the data: patent US10323043B2

Molecular target: FLT3-ITD (Homo sapiens)
Construct: FLT3-ITD (#0778-0000-1) and FLT3^D835Y (#14-610) proteins were purchased from ProQinase and Merck Millipore, respectively; fused on or other part: GST tag, inferred from detection with the anti-GST europium antibody
Test: LanthaScreen TR-FRET binding test, FLT3-ITD
Settings: FLT3-ITD 15 nM, kinase tracer 236 3 nM, 25° C., 1 hour; read-out: Inhibition (IC50) of FLT3-ITD enzyme
Experimental: FLT3 (#PV3182), JAK2 (#PV4210) and JAK3 (#PV3855) recombinant enzymes were purchased from Life Technologies. FLT3-ITD (#0778-0000-1) and FLT3^D835Y (#14-610) proteins were purchased from ProQinase and Merck Millipore, respectively. All the tests were carried out in 384-well plates. […] The compounds are evaluated at 8 different concentrations prepared by making dilutions from a starting 10 mM stock solution in dimethylsulfoxide (DMSO) (Sigma, #D8418). […]
Property: pIC50
# pIC50: negative log10 of molar concentration; output just the value

Example entries and their recorded answers appear below.
# Compound, pIC50
rows = [
    ("c1cc(N2C[C@H]3C[C@@H]2CN3)c2cc1Nc1ncc3c(n1)-c1cc(ccc1CC3)OCCOCCO2", 8.82),
    ("c1cc(N2CC3CNCC3C2)c2cc1Nc1ncc3c(n1)-c1cc(ccc1CC3)OCCOCCO2 (stereo not shown)", 9.10),
    ("CN1CC=C(c2ccc3cc2OCCOCCOc2ccc4c(c2)-c2nc(ncc2CC4)N3)CC1", 8.77),
]

Let's switch to this compound now.
Measured pIC50 of `c1cc(N2CCNCC2)c2cc1Nc1ncc3c(n1)-c1cc(ccc1CC3)OCCOCCO2` : 8.89
